The reported numbers originate from PubChem BioAssay (NCI).

Test system: SR leukemia
Experiment: NCI-60 one-dose screen, 48 h (100 = growth as untreated, 0 = no growth, -100 = all killed)
Settings: 10 µM
Compounds without any hit were thinned out: in the full panel of roughly 83,000, 20% have a hit.
Measure: growth (%)

{"Compound": "Nc1c(C(=O)Nc2ccccc2)sc2nc3c(cc12)C(O)CCC3 (stereo unspecified)", "Tgt": "SR leukemia", "Measure": "growth", "Measured Result": 7.36}
{"Compound": "O=C1/C(=C\\c2ccccc2)CN(C(=O)c2ccccc2F)C/C1=C\\c1ccccc1", "Tgt": "SR leukemia", "Measure": "growth", "Measured Result": -35.1}
{"Compound": "O=[N+]([O-])c1cccc(N=Cc2ccc3c(c2)OCO3)c1", "Tgt": "SR leukemia", "Measure": "growth", "Measured Result": 102}
{"Compound": "Clc1cccc(-c2nc(-c3cccs3)no2)c1", "Tgt": "SR leukemia", "Measure": "growth", "Measured Result": 85.7}
{"Compound": "CCN(CC)CCCOCCCNc1cc(OC)cc2cccnc12", "Tgt": "SR leukemia", "Measure": "growth", "Measured Result": 100}
{"Compound": "CCOCCOCCOCCOCCOCCOCCOCCOCCOCCO (tested in a mixture with another compound)", "Tgt": "SR leukemia", "Measure": "growth", "Measured Result": -52.4}
{"Compound": "Nc1nc(-c2ccccc2Cl)cc(-c2ccc(Cl)cc2Cl)n1", "Tgt": "SR leukemia", "Measure": "growth", "Measured Result": 25.4}
{"Compound": "Oc1[nH]c2ccc(Cl)cc2c1/C=c1/ccc2c(c1)N=C(c1cc(F)cc(F)c1)N=2", "Tgt": "SR leukemia", "Measure": "growth", "Measured Result": 13.9}
{"Compound": "Cc1ccc(C(=O)N2C/C(=C/c3ccccc3)C(=O)/C(=C/c3ccccc3)C2)cc1", "Tgt": "SR leukemia", "Measure": "growth", "Measured Result": -12.4}
{"Compound": "O=C(CCCCC[P+](c1ccccc1)(c1ccccc1)c1ccccc1)NC(COC(=O)C(Cl)Cl)(COC(=O)C(Cl)Cl)COC(=O)C(Cl)Cl", "Tgt": "SR leukemia", "Measure": "growth", "Measured Result": 88.8}
{"Compound": "CCCCOC(=O)Oc1ccc(C(=O)Oc2ccc(OCC)cc2)cc1", "Tgt": "SR leukemia", "Measure": "growth", "Measured Result": 107}
{"Compound": "COc1cc(C(=C2O[C@@H]([C@H]3COC(C)(C)O3)[C@H]3OC(C)(C)O[C@@H]23)c2cc(OC)c(OC)c(OC)c2)cc(OC)c1OC", "Tgt": "SR leukemia", "Measure": "growth", "Measured Result": 90.6}
{"Compound": "COc1ccc(CN2CCC(N3CCCC3=O)c3cc(Cl)ccc32)cc1 (stereo unspecified)", "Tgt": "SR leukemia", "Measure": "growth", "Measured Result": 84.2}
{"Compound": "Cc1ccc(NC(=O)Nc2cccnc2)cc1NC(=O)Nc1cccnc1", "Tgt": "SR leukemia", "Measure": "growth", "Measured Result": 31.3}
{"Compound": "O=C(Nc1ccncc1)C(=O)c1cn(S(=O)(=O)c2cc(Cl)cc(Cl)c2)c2ccccc12", "Tgt": "SR leukemia", "Measure": "growth", "Measured Result": 38}
{"Compound": "O=C1OCC2=C1C(c1cccc(Cl)c1)c1cc3c(cc1N2CCO)OCCO3 (stereo unspecified)", "Tgt": "SR leukemia", "Measure": "growth", "Measured Result": 32.4}
{"Compound": "COc1ccc2c(c1)[n+]([O-])c(C#N)c(NC(=O)c1ccco1)[n+]2[O-]", "Tgt": "SR leukemia", "Measure": "growth", "Measured Result": 87.4}
{"Compound": "COC(=O)C1=NNC(=S)N(c2cc(C)[nH]n2)C(=O)C1", "Tgt": "SR leukemia", "Measure": "growth", "Measured Result": 86.3}
{"Compound": "Cc1nc2oc3ccccc3c(=O)c2cc1C(=O)NCc1ccccc1", "Tgt": "SR leukemia", "Measure": "growth", "Measured Result": 69.7}
{"Compound": "Cc1cc(Cc2cc(C)c(O)c(C)c2)cc(C)c1O", "Tgt": "SR leukemia", "Measure": "growth", "Measured Result": 25.1}
{"Compound": "CCCC#CCN(CC)CC", "Tgt": "SR leukemia", "Measure": "growth", "Measured Result": 101}
